Listing of entries alongside the reported apparent Kd.
# System: MS2 coat protein
# ASSAY_PROTOCOL: apparent Kd, MS2 coat protein; higher = weaker binding; RNA-MaP array
# CONDITION_NOTES: designed as: OFF switch for flavin mononucleotide; no ligand
Form entry: value (nM) — number only.

Illustrative cases are given below, each with its answer.
RESIDUES	SYSTEM_NAME	SCALE_UNIT	OBSERVED
UGGGCGGAAGGAUAUACAUGAGGAUCACCCAUGUGUCUUUUGCUGAUGGGUGCAUAGUGUAGAAGGUCCAGUGU	MS2 coat protein	nM	93.7
CUCGGAAACGGAGGAUAUAGCUGAAGAGGAUUACUAGAAGGCCGAGACAUGAGGAUCACCCAUGUUUUCUCAAGUCGCAGUUUA	MS2 coat protein	nM	7.93
UGAACACUGUGAGGAUAUCCACAUGAGGAUCACCCAUGUUUCCUCAGUGAUGCUAUAGCUUCCACGGAGAAGGCACAUGUAAUC	MS2 coat protein	nM	31.2

We next turn to a different sequence, shown below.
Query :: // apparent Kd lookup, key: `ACCCGCUCCUGAGGAUAUCCGGCAUGACAUGAGGAUCACCCAUGUGGGCUCGUGGAGGGAGUGCAGGAGAAGGCAGUAGGCGCU`
Result :: 35.7

* * *

# Tested on: MS2 coat protein
# ASSAY_PROTOCOL: apparent Kd, MS2 coat protein; higher = weaker binding; RNA-MaP array; tryptophan 2.4 mM where present
# CONDITION_NOTES: ligand present: tryptophan; designed as: OFF switch for tryptophan
MEASURED_METRIC: apparent Kd (nM)
Express it in nM; write the number only.

For orientation, consider the following solved cases.
RESIDUES	apparent Kd, nM
UAAUAAGUACCGGUCCUCAGAUCCUCAUGACGAGGACCGGUACGGCCGCCACUCGAAACAUGAGGAUCACCCAUGUAAUAAUAAC	19.4
CACGAAAGAUCGGCCGCCACUAUUUGAUGUGUUCUUUCACAUGAGGAUCACCCAUGUUCUUAUUUUAGGACCGGGAUUGAGCGUG	69.3
AGCACUGUGACGGCCGCCACUAUAUUAGGGUGGUCAGGUUCAUAAAUACAUGAGGAUCACCCAUGUAGGACCGGGUCUCAGUGCA	9.88

Query :: Under MS2 coat protein: apparent Kd value of `GCUGCAGCUACGGCCGCCACUGUUACGUGAGACAUGAGGAUCACCCAUGUUGAUGUUUUACGGUAUAGGACCGGGUAGUUGUAGU` ?
Result :: 13.4

Query :: Write down the reported apparent Kd of `CCUAUGCAGUCGGCCGCCACUGAAAACAGCCUCAAAAUAAAUAUAACAUGAGGAUCACCCAUGUACAGGACCGGGACUGUAUAGG` , test system: MS2 coat protein.
Result :: 79.6

Query :: # get_value(readout= apparent Kd, system= MS2 coat protein) for `AACAUGAGGAUCACCCAUGUGUCCUCGAAACGAGGACCGGUACGGCCGCCACUCGGCGUAUGUUGACGAAAAGUCAGCAUACGCA`
Result :: 737

Query :: Enter reported apparent Kd observed with MS2 coat protein for `UCGUUGAAGUCGGCCGCCACUGAACUCAUGUUCAACAUGAGGAUCACCCAUGUACCUUAUUUUAACAGGACCGGGACUUUGACGA`
Result :: 156

* * *

# System: MS2 coat protein
# ASSAY_PROTOCOL: apparent Kd, MS2 coat protein; higher = weaker binding; RNA-MaP array; FMN 200 µM where present
# CONDITION_NOTES: ligand present: flavin mononucleotide; designed as: ON switch for flavin mononucleotide
Mark No for apparent Kd values under 50 nM, and Yes for everything at or above.

The examples below pair each entry with its known result.
RESIDUES	SYSTEM_NAME	CLASS
GUGUGUUGCGGGCAGGAUAUGUAUUUGAGUACAUGAGGAUCACCCAUGUGCGCCUGUUUCAGGCGACAGAAGGGCCUAUCGCGAC	MS2 coat protein	No
UUUAAGCUCACAUGAGGAUCACCCAUGUCCGUUCGCCCGGACAGAAGGCACCCAUGACAAUGCGGUGAGGAUAUGUCAGCAAGG	MS2 coat protein	No
CCUAAGGACACAGGAUAUAGCGUCGUGGCUGGGCUCCAACGGCGAGCGGCGCUAGAAGGGUGACCACAUGAGGAUCACCCAUGU	MS2 coat protein	Yes

Query :: Form field: apparent Kd at least 50 nM? Entry: `UUUAAACAUGAGGAUCACCCAUGUCGUUCAAAUCAAGGAUAUCAAGCGUGUGAGCACACUUGAGAAGGUGAAGCUC`
Result :: Yes

Query :: Decide: is the reported value of apparent Kd for `UGUUGUAUUACAGGAUAUCUAUGAUUUUUGUUUAGAGAAGGGUAUUCACAUGAGGAUCACCCAUGUAUAUACGAGGAAGUUGUG` equal to or greater than 50 nM?
Result :: Yes

Query :: Check this sequence for apparent Kd at or above 50 nM: `CGUAGGAUCCAGAAGGCAUGAACAUGAGGAUCACCCAUGUUAAAAUACAUGAGGAUAUGGAUCCUACGAAAAGUGCGAAAGCAC`
Result :: No

Query :: Please tell me: is the sequence `UUGGACGUCGUAGGAUAUGUAGGAUAUUCAUACAUGAGGAUCACCCAUGUUGACAUGGAAGAAGGACAGAAGGACGAUGUCCAU` at or over 50 nM in terms of apparent Kd?
Result :: No

Query :: Decide: apparent Kd of `AGUUAGAUAGCGAUAUGAUCGAGAGAUCAUGUCGCUAAGUUUAGAAGGACAUGAGGAUCACCCAUGUAGGAUAUGGGAGUAGAA` >= 50 nM?
Result :: Yes

Query :: Determine whether measured apparent Kd meets or exceeds 50 nM for `CCGGAAACGGGUAGCCUGACAUGAGGAUCACCCAUGUGAACCAAGGAUAUGGAUCCUAAUUGGAUCCAGAAGGUGGAAGGCUAC`
Result :: No

Query :: Record `GACUCGCGCACAGGAUAUCCACGGAGCGGACGUGGAGAAGGGUGACAUGAGGAUCACCCAUGUACGUGAGUCUAGAUCACUUCC` ; criterion: apparent Kd no lower than 50 nM. Met?
Result :: No

Query :: Given `UUGGACGUCGUAGGAUAUGUAGGAUAUUCCUACAUGAGGAUCACCCAUGUUGACAUGGAAGAAGGACAGAAGUACGAUGUCCAU` , state whether its apparent Kd is at least 50 nM.
Result :: No

Query :: Hi team, for `GCAUCACAUGAGGAUCACCCAUGUCUUCGGAGCGGAGGAUAUGGUCACUGUAAACAGUGGCCAGAAGGCUGGAUGC` , is the recorded apparent Kd at or above 50 nM?
Result :: No

Query :: API: above_or_equal(metric=apparent Kd, cutoff=50 nM) for item `CUAGUUGUCGCAGGAUAUGCCCGCUGGUUGGAGGCAGAAGGGUGACACCAAAUAUUAUACAUGAGGAUCACCCAUGUCGCCAAC`
Result :: No

Query :: Is the recorded value of apparent Kd equal to or greater than 50 nM for this sequence? `CUAGCAUACCGAGGAUAUUCAUAUAAUAAAUAAACAUGAGGAUCACCCAUGUGGCGAAAGCCUAGGGAGAAGGCGGAAUGCUAA`
Result :: No

* * *

# System: MS2 coat protein
# ASSAY_PROTOCOL: apparent Kd, MS2 coat protein; higher = weaker binding; RNA-MaP array
# CONDITION_NOTES: ligand present: tryptophan; designed as: ON switch for tryptophan
Assign yes whenever apparent Kd does not fall below 30 nM; assign no whenever it does.

Past entries and their recorded results:
RESIDUES	SYSTEM_NAME	CLASS
GUAUUACGGACGGCCGCCACUGUGGGACAUGAGGAUCACCCAUGUGGCGCUACUUACAAGUGCGACAGGACCGGGUCAUGGUUUG	MS2 coat protein	yes
CCCUCGUCAACGGCCGCCACUGUGAUUCACUAAGAUAAUAUUGCACAUGAGGAUCACCCAUGUCUCAGGACCGGGUUGGUGUGUC	MS2 coat protein	yes
GAUUCGCAGUCGGCCGCCACUAACAUGAGCUGCUAGUUAUUAUCACAUGAGGAUCACCCAUGUCUUAGGACCGGGACAACCUGUU	MS2 coat protein	yes

Alright, here's another sequence for you.
Query :: Quick check: does `AGUCACAUGAGGAUCACCCAUGUGCCAGAACGAGGACCGGUACGGCCGCCACUCGAGGCGUCCGUCGACAAUAAUGUGAACUGCA` have apparent Kd greater than or equal to 30 nM?
Result :: no

* * *

# System: MS2 coat protein
# ASSAY_PROTOCOL: apparent Kd, MS2 coat protein; higher = weaker binding; RNA-MaP array
# CONDITION_NOTES: ligand present: tryptophan; designed as: OFF switch for tryptophan
MEASURED_METRIC: apparent Kd

Example entries and their recorded answers appear below.
RESIDUES	apparent Kd
AAUACAGCUACGGCCGCCACUUUAACUUGGUAUGGGUCCUUCACAAACAUGAGGAUCACCCAUGUAAGGACCGGGUAGCCUUGUU	35 nM
AACUGAAGCACCUUAUGCGGCGGCAAAACCCGAGGACCGGUACGGCCGCCACUCGAGUCGCAACAUGAGGAUCACCCAUGUGUAU	117 nM
UCCGGACGUUCGGCCGCCACUAAUUUACAUGAGGAUCACCCAUGUGCCAGUGGUCCGCAGAGUAAUAGGACCGGGAACCUUGGCU	29.2 nM
GCGUGUUAUAGUCAUCGUGAGCGUCCAUCCCGAGGACCGGUACGGCCGCCACUCGCCACAGGACAUGAGGAUCACCCAUGUUAUG	17 nM

Proceed to the following item.
Query :: Consider the sequence shown here: `AAUUGAAACAGAGGUAUAUACGGACAUUACCGAGGACCGGUACGGCCGCCACUCGACCUAAAACAUGAGGAUCACCCAUGUAGCA` What is its recorded apparent Kd?
Result :: 13.6 nM
